Study Target: human FLAG-SAMTOR (Homo sapiens, UniProt Q1RMZ1)
Sequence (Q1RMZ1 1-405): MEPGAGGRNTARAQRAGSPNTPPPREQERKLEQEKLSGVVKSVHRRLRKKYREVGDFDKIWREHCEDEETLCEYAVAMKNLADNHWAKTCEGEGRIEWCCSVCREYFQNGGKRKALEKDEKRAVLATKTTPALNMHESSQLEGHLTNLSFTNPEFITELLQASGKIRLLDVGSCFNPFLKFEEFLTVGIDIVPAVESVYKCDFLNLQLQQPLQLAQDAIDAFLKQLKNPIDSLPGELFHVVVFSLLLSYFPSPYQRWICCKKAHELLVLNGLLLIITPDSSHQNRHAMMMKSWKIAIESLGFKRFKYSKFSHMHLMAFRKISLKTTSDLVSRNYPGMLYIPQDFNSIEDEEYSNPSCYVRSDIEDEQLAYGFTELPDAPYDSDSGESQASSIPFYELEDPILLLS
Measured Property: Kd

For reference, reported Kd for C[S+](CC[C@H](N)C(=O)[O-])C[C@H]1O[C@@H](n2cnc3c(N)ncnc32)[C@H](O)[C@@H]1O (stereo partly shown) stands at ~7 µM
